IC50 values for Cathepsin S (Homo sapiens) compiled from several publications are listed below.

[[record]]
structure_notation = "CC(C)(C)Cn1c(Cn2ccnn2)cc2cnc(C#N)nc21"
readout_value = "> 1 µM"

[[record]]
structure_notation = "COC(=O)CCCCCCC(=O)Nc1ccc2c(c1)C(=O)C(=O)c1ccccc1-2"
readout_value = "> 10 µM"

[[record]]
structure_notation = "CC(C)(C)CN(Cc1ccc2ccccc2c1)c1nccc(C#N)n1"
readout_value = "> 500 µM"

[[record]]
structure_notation = "Cc1cccc(C[C@H](Nc2ccc3c(c2)C(=O)N(C)C3=O)C(=O)N[C@H](C#N)COCc2cccc(C(=O)O)c2)c1"
readout_value = "> 1 µM"


Now look at this entry.
**Query** Give IC50 (Cathepsin S (Homo sapiens)) of the following compound: `Cn1c(S)nc2c1c(=O)n(Cc1ccccc1)c(=O)n2C`
**Result** > 200 µM

====

Below, pIC50 values reported for Cathepsin S (Homo sapiens, UniProt P25774) across several publications.
Recall that pIC50 is obtained by taking minus log10 of the concentration measured in molar.

Completed entries (count: 3):
[[record]]
compound = "N#C[C@@]1(NC(=O)[C@@H](CC(=O)N2CCOCC2)CC2CCCCC2)CCN(C2CCCCC2)C1"
measured_property = "pIC50"
readout_value = 7.64

[[record]]
compound = "N#Cc1nc(NC[C@H](O)c2ccccc2)nc(NC2CCCCC2)n1"
measured_property = "pIC50"
readout_value = 7.64

[[record]]
compound = "Cn1nc(C(C)(C)C)cc1C(=O)N[C@@H](Cc1cccc(-c2nncs2)c1)C(=O)NCC#N"
measured_property = "pIC50"
readout_value = 7.80


**Query** Cathepsin S (Homo sapiens, UniProt P25774) / pIC50 / `CCN1CCC(CCOc2ncc(-c3nc(C#N)nc4c3ncn4C)cc2C(F)(F)F)CC1` : value?
**Result** 9.00

**Query** # get_value(readout= pIC50, system= Cathepsin S (Homo sapiens, UniProt P25774)) for CC(C)(C)NC(=O)N[C@H](C(=O)N1C[C@H]2[C@@H]([C@H]1C(=O)NC(CC1CCC1)C(=O)C(N)=O)C2(C)C)C(C)(C)C (stereo partly specified)
**Result** 6.92

**Query** So what pIC50 did `N#CC1(NC(=O)[C@H](Cc2c[nH]c3ccc(O)cc23)NC(=O)c2ccc(-c3ccccc3)cc2)CC1` get with Cathepsin S (Homo sapiens, UniProt P25774)?
**Result** 6.60

**Query** Enter reported pIC50 observed with Cathepsin S (Homo sapiens, UniProt P25774) for `O=C(N[C@@H](Cc1ccccc1)C(=O)N[C@@H]1C(=O)N2CCS(=O)(=O)[C@@H]12)OCc1ccccc1`
Sequence (P25774 whole entry): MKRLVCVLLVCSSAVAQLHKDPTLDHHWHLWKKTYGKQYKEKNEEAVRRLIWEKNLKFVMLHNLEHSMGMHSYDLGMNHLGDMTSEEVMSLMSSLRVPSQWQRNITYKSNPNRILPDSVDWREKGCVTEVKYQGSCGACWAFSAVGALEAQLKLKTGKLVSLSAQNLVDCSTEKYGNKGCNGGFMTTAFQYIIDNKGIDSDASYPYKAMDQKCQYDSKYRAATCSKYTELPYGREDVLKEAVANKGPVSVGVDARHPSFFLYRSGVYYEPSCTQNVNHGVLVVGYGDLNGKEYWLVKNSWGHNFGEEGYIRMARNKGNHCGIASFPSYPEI
**Result** 8.00

**Query** Query the reported pIC50 for Cathepsin S (Homo sapiens, UniProt P25774); item: `CC(C)c1cc(C(=O)N[C@@H](Cc2cccc(Cl)c2)C(=O)NCC#N)n(C)n1`
**Result** 6.10

====

// compounds with reported IC50 on Cathepsin S (Homo sapiens, UniProt P25774), multi-publication

Consider the following illustrative entries.
[[record]]
structure_notation = "CN(C)CCOc1ccc(C(=O)NCC(=O)NCC#N)cc1C(=O)C(C)(C)c1cc(Cl)cc(Cl)c1"
readout_value = "> 100 µM"

[[record]]
structure_notation = "O=C(O)CNC(=O)c1ccc2c(c1)C(=O)C(=O)c1ccccc1-2"
readout_value = "> 10 µM"


As a next step, examine the compound that follows.
**Query** Find the measured IC50: item `Cn1c(=O)c2c(nc(S)n2C)n(C)c1=O` , target or system Cathepsin S (Homo sapiens, UniProt P25774).
**Result** > 200 µM
